biological target: recombinant aSyn fibrils (Homo sapiens, UniProt P37840); assay: In vitro radioligand binding assay with [^3H]BF2846 in recombinant aSyn fibrils
metric: Ki (nM)

[[record]]
smiles_string = "COc1ccc(NC(=O)c2cnc(N3CCN(c4ncccn4)CC3)nc2N)cc1"
meas_value = 41.9

